Documented growth inhibition across a set of compounds
# assayText: NCI Yeast Anticancer Drug Screen. Data for the sgs1 mgt1 strain (AID 161);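 also: 0% = growth of cultures given vehicle only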
# conditionNotes: S. cerevisiae sgs1 mgt1 strain, at 50.0 µM (retest, dose inferred, filed as 5.0), stronger effect = higher value
# Protocol: Growth inhibition of yeast strains with defined genetic alterations is measured as a screen for potential anti-cancer activity. Selected strains with alterations in DNA damage repair or cell cycle control were exposed to compounds and growth inhibition was measured relative to vehicle treated controls. The strain used in this assay is sgs1 mgt1
This is part of a sample that, as a whole, favours compounds with a hit. Of some 79,000 tested, about 15% had one in any assay. Calls of active or inactive are those of the source. Rule as the data show it: active = growth inhibition above about 70%; inactive = the rest.

[
  {
    "compound": "O=C(NNc1ccccc1)C(O)C(O)C(O)C(O)C(O)C(O)C(O)CO (stereo unspecified)",
    "growth inhibition": "82% (active)"
  },
  {
    "compound": "CCCCC1(CC)COC(c2ccccc2OC)OC1 (stereo unspecified)",
    "growth inhibition": "81% (active)"
  },
  {
    "compound": "Cc1ccc(C(=O)OCCN2CCOCC2)c([N+](=O)[O-])c1OCc1ccccc1",
    "growth inhibition": "81% (active)"
  },
  {
    "compound": "Nc1ccc2c(c1)NCCN2",
    "growth inhibition": "20% (inactive)"
  },
  {
    "compound": "C[C@]12C[C@H](c3ccccc3)Nc3ccccc3N1C(c1ccccc1)=NO2",
    "growth inhibition": "80% (active)"
  }
]

Now for the compound whose growth inhibition we want.
Exercise: Need growth inhibition of `COc1ccc2c(C(=O)c3ccccc3)c3[n+](cc2c1OC)CCc1cc2c(cc1-3)OCO2` , thanks.
Solution: 20% (inactive)

----------
# assayText: NCI Yeast Anticancer Drug Screen. Data for the bub3 strain (AID 167)
# conditionNotes: S. cerevisiae bub3 mutant strain, at 50.0 µM (retest, dose inferred, filed as 5.0), stronger effect = higher value
Compounds without any hit were thinned out: in the full panel of roughly 79,000, 15% have a hit.
resultType: growth inhibition (%)
Kindly provide the numeric value in % only, without the unit symbol.

[
  {
    "molecule": "COc1cc(OC)c(C/C=C/c2ccccc2)cc1O",
    "unitsSymbol": "%",
    "growth inhibition": 86
  },
  {
    "molecule": "Clc1ccc(/C=N/Nc2c3ccccc3nc3ccccc23)c(Cl)c1",
    "unitsSymbol": "%",
    "growth inhibition": 92
  },
  {
    "molecule": "COC1OC(CBr)C(OC(C)=O)C(OC(C)=O)C1OC(C)=O (centres undefined)",
    "unitsSymbol": "%",
    "growth inhibition": 3
  }
]

Exercise: Need growth inhibition of `CCOC(=O)Nc1nc2ccc(Cn3cccc3)cc2[nH]1` , thanks.
Solution: 24

----------
# assayText: NCI Yeast Anticancer Drug Screen. Data for the sgs1 mgt1 strain (AID 161);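 also: 0% = growth of cultures given vehicle only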
# conditionNotes: S. cerevisiae sgs1 mgt1 strain, at 50.0 µM (retest, dose inferred, filed as 5.0), stronger effect = higher value
The panel holds about 79,000 compounds, 15% with a hit somewhere; the sample as a whole holds those more often.
resultType: growth inhibition (%)
Kindly provide the numeric value in % only, without the unit symbol.

[
  {
    "compound": "CC(CO)CCC(=O)C(C)C1C(=O)CC2CC3CC(O)CCC3(C)CC21C (centres undefined)",
    "unitsSymbol": "%",
    "obsValue": 48
  },
  {
    "compound": "COc1cccc2c1C(=O)c1c(O)c3c(c(O)c1C2=O)C[C@@](O)(C(O)CO)C[C@@H]3OC1CC(N(Cc2ccccc2)Cc2ccccc2)C(O)C(C)O1 (some centres undefined)",
    "unitsSymbol": "%",
    "obsValue": 98
  },
  {
    "compound": "CNC(=S)N/N=C(\\C=N\\NC(=S)NC)c1ccccc1",
    "unitsSymbol": "%",
    "obsValue": 37
  },
  {
    "compound": "CC(c1ccccc1)n1c2ccccc2c2c(N)ncnc21 (centres undefined)",
    "unitsSymbol": "%",
    "obsValue": 100
  },
  {
    "compound": "Cn1c(=S)sc2nc3ccccc3n2c1=S",
    "unitsSymbol": "%",
    "obsValue": 98
  }
]

Exercise: Need growth inhibition of CCCCCCCCN(CCCCCCCC)CC(O)c1cc(OCC)nc2ccccc12 (centres undefined) , thanks.
Solution: 96

Exercise: Need growth inhibition of COc1cc(OC)cc(C2SCC(=O)N2c2nncs2)c1 (centres undefined) , thanks.
Solution: 2

Exercise: Need growth inhibition of COc1cc(C2CC(=O)c3ccccc3O2)ccc1O (centres undefined) , thanks.
Solution: 98

Exercise: Need growth inhibition of `O=C(/C=C/c1ccccc1)CCN1CCOCC1` , thanks.
Solution: 100

Exercise: Need growth inhibition of `c1ccc2c3ccn4ccc5c6ccccc6[nH]c5c4c-3nc2c1` , thanks.
Solution: 93

----------
# assayText: NCI Yeast Anticancer Drug Screen. Data for the sgs1 mgt1 strain (AID 161);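 also: 0% = growth of cultures given vehicle only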
# conditionNotes: S. cerevisiae sgs1 mgt1 strain, at 5.0 µM (retest, dose inferred, filed as 0.5)
# Procedure: Growth inhibition of yeast strains with defined genetic alterations is measured as a screen for potential anti-cancer activity. Selected strains with alterations in DNA damage repair or cell cycle control were exposed to compounds and growth inhibition was measured relative to vehicle treated controls. The strain used in this assay is sgs1 mgt1
This is part of a sample that, as a whole, favours compounds with a hit. Of some 79,000 tested, about 15% had one in any assay. Calls of active or inactive are those of the source. No stated cut-off is given here; in the data, active means growth inhibition above about 70%; inactive means the rest.
Reply using exactly one outcome from active, inactive

Take a look at these entries with their results.
[
  {
    "compound": "O=S(=O)(c1cc(Br)ccc1O)c1cc(Br)ccc1O",
    "class": "active"
  },
  {
    "compound": "O=C1CSC(=S)N1Cc1ccncc1",
    "class": "inactive"
  }
]

Exercise: GET /call?item= `CCOC(=O)N1C=CC(=C2C(=C3C=CN(C(=O)OCC)C=C3)C(=C3C=CN(C(=O)OCC)C=C3)C2=C2C=CN(C(=O)OCC)C=C2)C=C1` returns the recorded outcome of this test.
Solution: inactive

Exercise: GET /call?item= `COc1ccc2nc3cc(Cl)ccc3c(NCCC[N+](C)(C)CCCCCCCCCC[N+](C)(C)CCCNc3c4ccc(Cl)cc4nc4ccc(OC)cc34)c2c1` returns the recorded outcome of this test.
Solution: inactive

Exercise: GET /call?item= `COC(=O)c1nc(N)nc(C(=O)OC)c1C(=O)c1ccccc1` returns the recorded outcome of this test.
Solution: inactive

Exercise: GET /call?item= CC(NC(=O)OCc1ccccc1)C(=O)NC(C(=O)O)C(C)C (stereo not drawn) returns the recorded outcome of this test.
Solution: inactive

Exercise: GET /call?item= `S=c1[nH]nc(SCc2ccc(Cl)c(Cl)c2)c2[nH]cnc12` returns the recorded outcome of this test.
Solution: inactive

Exercise: GET /call?item= `CP(=O)(c1ccccc1)c1ccccc1` returns the recorded outcome of this test.
Solution: inactive

Exercise: GET /call?item= `COc1ccc2c(c1)Cc1cc(NC(=O)N(CCCl)N=O)ccc1-2` returns the recorded outcome of this test.
Solution: inactive

Exercise: GET /call?item= `COc1ccc(C(C)=O)c(OC(=O)c2ccccc2)c1OC(=O)c1ccccc1` returns the recorded outcome of this test.
Solution: inactive

----------
Documented growth inhibition across a set of compounds
# assayText: NCI Yeast Anticancer Drug Screen. Data for the cln2 rad14 strain (AID 165);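 also: 0% = growth equal to vehicle treated cultures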
# conditionNotes: S. cerevisiae cln2 rad14 strain, at 5.0 µM (retest, dose inferred, filed as 0.5), stronger effect = higher value
About 79,000 compounds went through this panel and 15% of them were active in at least one assay; those are over-represented in the sample as a whole.
Kindly provide the numeric value in % only, without the unit symbol.

Study these solved cases before continuing.
[
  {
    "compound": "C(=C\\[n+]1ccc2ccccc2c1)/c1ccccc1",
    "unitsSymbol": "%",
    "growth inhibition": -3
  },
  {
    "compound": "CCN(CC)CCNc1cc(C)nc2c1ccc1c2ccc2c(NCCN(CC)CC)cc(C)nc21",
    "unitsSymbol": "%",
    "growth inhibition": -16
  }
]

Exercise: Need growth inhibition of `O=C1OC(c2ccccc2)=N/C1=C\c1ccc(Oc2ccc(Cl)c(Cl)c2)cc1` , thanks.
Solution: -2

Exercise: Need growth inhibition of `Cc1ccc(C(C)(C)c2ccc(C(=O)O)cc2)cc1` , thanks.
Solution: 1

Exercise: Need growth inhibition of O=C1C=CC(=O)C2C1Cc1ccccc1C2c1ccccc1 (configuration not stated) , thanks.
Solution: 9

----------
# assayText: NCI Yeast Anticancer Drug Screen. Data for the sgs1 mgt1 strain (AID 161);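 also: 0% = growth of cultures given vehicle only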
# conditionNotes: S. cerevisiae sgs1 mgt1 strain, at 50.0 µM
About 79,000 compounds went through this panel and 15% of them were active in at least one assay; those are over-represented in the sample as a whole. Calls of active or inactive are those of the source. No stated cut-off is given here; in the data, active means growth inhibition above about 70%; inactive means the rest.
Reply using exactly one outcome from y (active), n (inactive)

Take a look at these entries with their results.
[
  {
    "compound": "Oc1ccc(Cl)cc1Cc1cc(Cl)cc(Cc2cc(Cl)ccc2O)c1O",
    "class": "y"
  },
  {
    "compound": "COC1/C=C/OC2(C)Oc3c(C)c(O)c4c5c(cc(O)c4c3C2=O)N=C(O5)/C(C)=C\\C=C\\C(C)C(O)C(C)C(O)C(C)C(OC(C)=O)C1C (stereo not drawn)",
    "class": "n"
  }
]

Here is another compound to look at.
Exercise: GET /call?item= `O=C1Oc2cc3c(c4cccc1c24)OCN(c1ccccc1)C3` returns the recorded outcome of this test.
Solution: y
